Attribution: paper PMC10397247

# MEASURED TARGET: T1, 4H63-AA
# T1 chain: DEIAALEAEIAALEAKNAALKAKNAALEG
# EXPERIMENT NOTES: two-hybrid library CCmax;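 note: natural log of median RNA to DNA barcode read ratio; higher means stronger binding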
# COND: mean of both orientations
The threshold is inclusive: interaction score of exactly -1 counts as t; values below receive f.

> print(dat)
                                     binder  category
1  DKNAALKAKNAALEAEIAALEAEIAALEG [4H3969-AA]         f
2  DEIAALEAKNAALKAKIAALEAENAALEG [4H483-AA]         f
3  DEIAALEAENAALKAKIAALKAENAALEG [4H235-AA]         f
4  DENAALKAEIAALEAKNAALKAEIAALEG [4H1593-AA]         f
5  DKNAALKAEIAALEAKIAALEAENAALEG [4H3619-AA]         t
6  DKNAALKAEIAALEAKIAALKAKIAALEG [4H3629-AA]         t
